ASSAY REMARKS: compound binding in COS7 lysate, probe aLAP1, primary screen, cell lysate, small-molecule microarray (AID 1124);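 further: lysate comes from COS7 cells expressing LAP1 and is applied at 0.3 µg/mL; score merges spot fluorescence near 667 nm with signal-to-noise over triplicate slides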
SETUP CONDITIONS: probe aLAP1, fluorescence, higher = more signal
// composite z-score lookup, one value per entry
The reply should be a number, written without any unit.

Illustrative cases are given below, each with its answer.
>>> measured_result("COCCOC(=O)N1C(=O)[C@@]2(c3cc(C#CCC(C(=O)OC)C(=O)OC)ccc31)[C@H](C(=O)N1CCN(c3ncccn3)CC1)[C@H]1C(=O)O[C@H](c3ccccc3)[C@H](c3ccccc3)N1[C@@H]2c1ccc(OCCO)cc1")
0.522
>>> measured_result("C=CC[C@@]1(C(=O)NCC(O)CO)N=C(c2ccc(OCCCO)cc2)O[C@@H]1c1ccccc1N=[N+]=[N-] (stereo partly specified)")
1.02
>>> measured_result("COCCOC(=O)N1C(=O)[C@@]2(c3cc(C#CCC(C(=O)OC)C(=O)OC)ccc31)[C@H](c1ccccc1OCCO)N1[C@H](c3ccccc3)[C@H](c3ccccc3)OC(=O)[C@H]1[C@@H]2C(=O)N1CCc2cc(OC)c(OC)cc2C1")
0.211
>>> measured_result("CC(C)(C)OC(=O)CC[C@@]1(C(=O)NCCN2CCOCC2)N=C(c2ccc(OCCCO)cc2)O[C@@H]1c1ccccc1")
0.275
>>> measured_result("CCOC(=O)C[C@H]1[C@H](OC(=O)Cc2ccc3c(c2)OCO3)[C@@H](NC(=O)C2CCCCC2)c2cc(OCCCO)ccc2N1C(=O)Cc1ccc(OC)cc1")
0.366

Dear colleague, I am looking for the recorded composite z-score of the following compound: "CC(C)N1C(=O)C[C@@](C(=O)NCc2ccccc2)(c2ccc([N+](=O)[O-])cc2)[C@H]1c1ccc(CO)cc1" 0.506

----------
ASSAY REMARKS: small-molecule microarray binders of probe aDKK1, primary screen, biochemical, biotinylated probe, 635/667 nm fluorescence (AID 1099);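 further: score merges 667nm spot fluorescence with signal to noise across triplicate slides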
SETUP CONDITIONS: higher = more signal
// composite z-score lookup, one value per entry

Illustrative cases are given below, each with its answer.
>>> measured_result("CCC[C@@H]1C=C(C(=O)O)[C@H](c2ccc(C)cc2)N1S(=O)(=O)c1ccc(C)cc1")
0.36
>>> measured_result("CCOC(=O)C1=CC[C@@H](c2ccccc2Cl)N(S(=O)(=O)c2ccc(C)cc2)C1")
0.342
>>> measured_result("CCOC(=O)C1=CC[C@@H](c2ccccc2)N(S(=O)(=O)c2ccc(C)cc2)[C@H]1C(=O)OCC")
0.955

Dear colleague, I am looking for the recorded composite z-score of the following compound: "CC(C)NC(=O)[C@@H]1c2ccccc2C(=O)N(Cc2ccccc2)[C@H]1c1ccc(CO)cc1" 0.652

Dear colleague, I am looking for the recorded composite z-score of the following compound: C=CCC(OC(C)=O)[C@@H]1[C@@H](N(Cc2ccc(-c3ccccc3)cc2)C(=O)Cc2ccc(OC)cc2)c2cc(OCCCO)ccc2N1C(=O)c1ccc2ccccc2n1 (some centres not stated) -0.106

Dear colleague, I am looking for the recorded composite z-score of the following compound: "O=C1O[C@H](c2ccccc2)[C@H](c2ccccc2)N2[C@H]1[C@@H](C(=O)NC[C@H](O)c1ccccc1)[C@]1(C(=O)Nc3ccc(C#CCCO)cc31)[C@H]2c1ccc(O)cc1" -0.145

Dear colleague, I am looking for the recorded composite z-score of the following compound: "O=C1N(CCS(=O)(=O)c2ccccc2)Cc2ccccc2[C@H]2OC(c3ccc(OCCCO)cc3)=N[C@@]12CCS(=O)(=O)c1ccccc1" 0.883

----------
ASSAY REMARKS: splicing luciferase reporter signal modulators, primary screen, spliceosome inhibition project, cell-based, HEK293, splice +/- reporter (AID 1101);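 further: HEK293 cells carrying a splicing-competent luciferase reporter gene; test concentration not given here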
SETUP CONDITIONS: luminescence, 24 h, higher = more signal, called active from +8 up or from −8 down
Assign classes using reported z-score values and the ranges class A (below -0.9), class B (-0.9 to below -0.6), class C (-0.6 or more), please.

>>> answer_label("C=C(CCCC)C(=O)CC[C@H](OC(=O)c1cccnc1)c1cccc(OCCO)c1")
"class C"
>>> answer_label("O=C1O[C@H](c2ccccc2)[C@H](c2ccccc2)N2[C@H]1[C@@H](C(=O)N1CCN(c3ncccn3)CC1)[C@]1(C(=O)Nc3ccccc31)[C@H]2c1ccc(OCCO)cc1")
"class A"
>>> answer_label("CC(C)c1ccc(NN2C(C(O)c3ccc(N(C)C)cc3)C=CC3C(=O)N(c4ccccc4)C(=O)C32)cc1 (centres undefined)")
"class C"
>>> answer_label("COC(=O)[C@@]1(Cc2ccccc2)[C@H]2c3cc(C(=O)N4CCCC4)n(Cc4ccc(C)o4)c3C[C@H]2CN1C(=O)c1ccccc1")
"class A"
>>> answer_label("O=C(O)[C@H]1C[C@H]2C(=O)NCC(=O)N2[C@H]1c1ccc(O)cc1")
"class B"

Band for "COCCOC(=O)N1C(=O)[C@@]2(c3cc(C#Cc4ccc(OC)cc4)ccc31)[C@H](C(=O)N1CCN(c3ncccn3)CC1)[C@H]1C(=O)O[C@H](c3ccccc3)[C@H](c3ccccc3)N1[C@@H]2c1ccc(O)cc1" ? class B

----------
ASSAY REMARKS: anti-His antibody binders, primary screen, artefact control for SMM control protein annotation, biochemical, small-molecule microarray, 635 nm fluorescence (AID 1128);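 further: score merges feature fluorescence with signal-to-noise for each printed compound spot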
SETUP CONDITIONS: anti-His Alexa647 antibody binding, higher = more signal
// composite z-score lookup, one value per entry
The reply should be a number, written without any unit.

Illustrative cases are given below, each with its answer.
>>> measured_result("CCOC(=O)C[C@H]1[C@H](OC(=O)Cc2ccc3c(c2)OCO3)[C@@H](NC(=O)C2CCCCC2)c2cc(OCCCO)ccc2N1C(=O)Cc1ccc(OC)cc1")
0.135
>>> measured_result("N[C@@H](Cc1ccccc1)Cn1cc(-c2ccccc2)nn1")
-0.0727
>>> measured_result("Cc1ccccc1C(O)C1C=CC2C(=O)N(C)C(=O)C2N1N1CCCCC1 (stereo not given)")
1.87
>>> measured_result("CC(C)N1CC=CC23O[C@@H]4C=CCOC(=O)[C@@H]4[C@H]2C(=O)N(CCO)[C@@H]3C1=O (stereo not given in full)")
0.386
>>> measured_result("CN1CCC(CCCO)=CC1c1ccc(CN2CCCC2)cc1 (stereo not given)")
0.358
>>> measured_result("C=CCC(OC(C)=O)[C@@H]1[C@@H](N(Cc2ccc(-c3ccccc3)cc2)C(=O)Cc2ccc(OC)cc2)c2cc(OCCCO)ccc2N1C(=O)c1ccc2ccccc2n1 (stereo not given in full)")
0.009
>>> measured_result("COc1ccc(CCNC(=O)[C@@H]2c3ccccc3C(=O)N(Cc3ccc(OC(F)(F)F)cc3)[C@H]2c2ccc(CO)cc2)cc1")
1.66
>>> measured_result("COc1ccc([Si](C)(C)[C@@H]2[C@@H](CC(=O)N(CCO)Cc3ccccc3)O[C@]3(C(=O)N(C)c4ccccc43)[C@H]2C)cc1")
1.93
>>> measured_result("O=C/C=C/c1ccc(Cl)cc1")
-0.318
>>> measured_result("C=C(COC)/C(=C/C[C@H](OC(=O)c1ccncc1)c1cccc(OCCO)c1)c1cc(C(=O)OC)ccc1OC")
0.844

Dear colleague, I am looking for the recorded composite z-score of the following compound: "COC(=O)C[C@H]1O[C@]2(C(=O)N(Cc3ccccc3)c3ccc(NC(C)=O)cc32)[C@@H](C)[C@@H]1[Si](C)(C)c1ccc(OC)cc1" 0.242

Dear colleague, I am looking for the recorded composite z-score of the following compound: CCCCCN1CC=CC23O[C@@H]4/C=C\CCC(C)OC(=O)C4[C@H]2C(=O)N(CCCCCO)[C@@H]3C1=O (stereo not given in full) -0.0232

----------
System: Fibrinogen (Alexa647-labelled)
ASSAY REMARKS: fibrinogen binders on compound microarrays, profiling panel, artefact control for SMM control-protein annotation, biochemical, small-molecule microarray, 635/667 nm fluorescence (AID 1131);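 further: z-score merges 667 nm fluorescence with per-spot signal-to-noise over triplicate slides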
SETUP CONDITIONS: fibrinogen-A647 binding fluorescence, higher = more signal
# label = T if composite z-score >= -0.4 else F

// known answers, use as guide
>>> answer_label("Cc1ccc([C@H]2C(C(=O)O)=C[C@@H](C)N2S(=O)(=O)c2ccc(C)cc2)cc1")
"F"
>>> answer_label("O=C(NCc1ccccc1)[C@]1(CCS(=O)(=O)c2ccccc2)N=C(c2ccc(OCCCO)cc2)O[C@@H]1c1ccccc1")
"T"
>>> answer_label("CCN(CC)c1ccc(N2CC=CC34O[C@@H]5/C=C\\CCCOC(=O)C5[C@H]3C(=O)N(C(CO)C(C)C)[C@@H]4C2=O)cc1 (some centres not stated)")
"F"
>>> answer_label("COc1ccc([Si](C)(C)[C@H]2[C@H](CCn3cc([C@H](O)c4ccccc4)nn3)O[C@@]3(C(=O)N(Cc4cccc(N5CCC5=O)c4)c4ccccc43)[C@@H]2C)cc1")
"T"

Form field: composite z-score at least -0.4? Entry: "CC(C)NC(=O)[C@@H]1c2ccccc2C(=O)N(Cc2ccccc2)[C@H]1c1ccc(CO)cc1" T

Form field: composite z-score at least -0.4? Entry: "O=C1N(CCS(=O)(=O)c2ccccc2)Cc2ccccc2C[C@]12N=C(c1ccc(OCCCO)cc1)O[C@@H]2c1ccccc1" T

Form field: composite z-score at least -0.4? Entry: "COCCCNC(=O)[C@@]1(C)c2ccccc2C(=O)N(Cc2cc(C(F)(F)F)cc(C(F)(F)F)c2)[C@H]1c1ccc(CO)cc1" T

Source of measurements: PubChem BioAssay
